For each entry below, report its growth inhibition value.
protocol summary: NCI Yeast Anticancer Drug Screen. Data for the bub3 strain (AID 167)
applied conditions: S. cerevisiae bub3 mutant strain, at 50.0 µM (retest, dose inferred, filed as 5.0), stronger effect = higher value
The panel holds about 79,000 compounds, 15% with a hit somewhere; the sample as a whole holds those more often.
Numbers only, in %.

Check out these entries, answers already filled in.
> print(dat)
                           substance.smiles  parameter.measured  reported.value
1              CCCCCCCCCCCC[n+]1ccc(C#N)cc1   growth inhibition              92
2  CC(C)(C)NCc1cc(C(C)(C)C)cc(-c2ccc(Cl)cc2)c1O   growth inhibition              91

# ---- query molecule ----
Sample COc1ccccc1/C=C(\NC(=O)c1ccccc1)c1nc2ccccc2[nH]1 — what was its growth inhibition?
88

----------
protocol summary: NCI Yeast Anticancer Drug Screen. Data for the bub3 strain (AID 167)
applied conditions: S. cerevisiae bub3 mutant strain, at 50.0 µM
The panel holds about 79,000 compounds, 15% with a hit somewhere; the sample as a whole holds those more often. Active and inactive are the calls of the source. No stated cut-off is given here; in the data, active means growth inhibition above about 70%; inactive means the rest.
Please answer using one outcome listed in active, inactive

The examples below pair each entry with its known result.
> print(dat)
                                   compound  discrete.label
1  C[C@H](CCC1=NCCN1)[C@H]1CC[C@H]2[C@@H]3CC[C@@H]4C[C@H](O)CC[C@]4(C)[C@H]3C[C@H](O)[C@]12C          active
2                CN(NC(=O)c1cccs1)C1=NCCCN1        inactive
3                  Cc1ccc2c(n1)C(=O)C=CC2=O          active
4         COc1cccc(/C=C2\CCCc3ccccc3C2=O)c1          active
5  COC(=O)C1C2CC3c4[nH]c5cc(OC)c(Br)cc5c4CCN3CC2CC(OC(=O)c2cc(OC)c(OC)c(OC)c2)C1OC (stereo unspecified)          active

Hi team, can someone confirm the assay call for C/C(=N/NC(=S)NCc1ccccc1)c1ncccn1 ?
active

----------
protocol summary: NCI Yeast Anticancer Drug Screen. Data for the sgs1 mgt1 strain (AID 161);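 further: 0% = growth of cultures given vehicle only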
applied conditions: S. cerevisiae sgs1 mgt1 strain, at 50.0 µM (retest, dose inferred, filed as 5.0)
This is part of a sample that, as a whole, favours compounds with a hit. Of some 79,000 tested, about 15% had one in any assay. Activity calls are given as the source filed them. No stated cut-off is given here; in the data, active means growth inhibition above about 70%; inactive means the rest.
Your answer must be one of the following: active, inactive

compound	discrete label
CCCCCCCCNc1ncnc2c1cnn2C	active

Kindly provide the recorded test outcome for the following compound: CCOC(=O)C(/C=N\C(=S)Nc1ccc(Cl)c(Cl)c1)=C(/O)c1ccccc1
inactive

Lab log entry: Cc1cccc(/C=N/NC(=S)Nc2ccccc2)n1 — outcome as called in the assay?
active

----------
Assignment: determine reported growth inhibition for the given compounds.
protocol summary: NCI Yeast Anticancer Drug Screen. Data for the bub3 strain (AID 167)
applied conditions: S. cerevisiae bub3 mutant strain, at 50.0 µM, stronger effect = higher value
This is part of a sample that, as a whole, favours compounds with a hit. Of some 79,000 tested, about 15% had one in any assay.
Numbers only, in %.

I have 6 compounds here; please give me growth inhibition for each one.
1. CC(=O)OC(C#N)CC(C)(C)/[N+]([O-])=[N+](\[O-])C(C)(C)CC(C#N)OC(C)=O (configuration not stated)
2. CC(=O)Nc1ccc(C(=O)C(C)Br)cc1 (configuration not stated)
3. Cc1ccc(C(=O)CC(N)C(=O)O)cc1 (configuration not stated)
4. Cn1c(C2CCC(=O)N2Cc2ccccc2)n[nH]c1=S (configuration not stated)
5. O=C1/C(=C\c2ccccc2)CCC/C1=C\O
6. CCCCCCCCCCCCNCc1ccc2c(c1)OCO2

[68.1, 66.1, -2.25, 62.5, 20, 98.7]
